- Details: 348.15 K; 100 kPa; Liquid; Concentric cylinders viscometry
Measurement label: viscosity (mPa·s)

>  <Structure>
CC[P+](CC)(CC)CCOC.O=S(=O)([N-]S(=O)(=O)C(F)(F)F)C(F)(F)F

>  <Measurement label>
viscosity

>  <Observed result>
10.15

$$$$
>  <Structure>
CCCC[N+]1(C)CCCCC1.O=S(=O)([N-]S(=O)(=O)C(F)(F)F)C(F)(F)F

>  <Measurement label>
viscosity

>  <Observed result>
22.51

$$$$
>  <Structure>
CCCC[N+]1(C)CCCC1.O=S(=O)([N-]S(=O)(=O)C(F)(F)F)C(F)(F)F

>  <Measurement label>
viscosity

>  <Observed result>
14.53

$$$$
>  <Structure>
CCCCC[P+](CC)(CC)CC.O=S(=O)([N-]S(=O)(=O)C(F)(F)F)C(F)(F)F

>  <Measurement label>
viscosity

>  <Observed result>
13.86

$$$$

----------
Listing of recorded viscosity by entry.
- Details: 341.15 K; 100 kPa; Liquid; Concentric cylinders viscometry

>  <Structure>
CCCC[N+]1(C)CCCCC1.O=S(=O)([N-]S(=O)(=O)C(F)(F)F)C(F)(F)F

>  <viscosity (mPa·s)>
27.98

$$$$
>  <Structure>
CCCCC[P+](CC)(CC)CC.O=S(=O)([N-]S(=O)(=O)C(F)(F)F)C(F)(F)F

>  <viscosity (mPa·s)>
16.79

$$$$
>  <Structure>
CC[P+](CC)(CC)CCOC.O=S(=O)([N-]S(=O)(=O)C(F)(F)F)C(F)(F)F

>  <viscosity (mPa·s)>
11.98

$$$$
>  <Structure>
CCCC[N+]1(C)CCCC1.O=S(=O)([N-]S(=O)(=O)C(F)(F)F)C(F)(F)F

>  <viscosity (mPa·s)>
17.37

$$$$

----------
- Details: 330.15 K; 100 kPa; Liquid; Vibrating tube method

>  <Structure>
CCCC[N+]1(C)CCCC1.O=S(=O)([N-]S(=O)(=O)C(F)(F)F)C(F)(F)F

>  <mass density [kg/m3]>
1367

$$$$
>  <Structure>
CCCCC[P+](CC)(CC)CC.O=S(=O)([N-]S(=O)(=O)C(F)(F)F)C(F)(F)F

>  <mass density [kg/m3]>
1277

$$$$
>  <Structure>
CC[P+](CC)(CC)CCOC.O=S(=O)([N-]S(=O)(=O)C(F)(F)F)C(F)(F)F

>  <mass density [kg/m3]>
1349

$$$$
>  <Structure>
CCCC[N+]1(C)CCCCC1.O=S(=O)([N-]S(=O)(=O)C(F)(F)F)C(F)(F)F

>  <mass density [kg/m3]>
1355

$$$$

----------
- Details: 318.15 K; 100 kPa; Liquid; Vibrating tube method

>  <Structure>
CCCC[N+]1(C)CCCCC1.O=S(=O)([N-]S(=O)(=O)C(F)(F)F)C(F)(F)F

>  <U>
kg/m3

>  <mass density>
1365

$$$$
>  <Structure>
CC[P+](CC)(CC)CCOC.O=S(=O)([N-]S(=O)(=O)C(F)(F)F)C(F)(F)F

>  <U>
kg/m3

>  <mass density>
1360

$$$$
>  <Structure>
CCCC[N+]1(C)CCCC1.O=S(=O)([N-]S(=O)(=O)C(F)(F)F)C(F)(F)F

>  <U>
kg/m3

>  <mass density>
1377

$$$$
>  <Structure>
CCCCC[P+](CC)(CC)CC.O=S(=O)([N-]S(=O)(=O)C(F)(F)F)C(F)(F)F

>  <U>
kg/m3

>  <mass density>
1287

$$$$

----------
- Details: 355.15 K; 100 kPa; Liquid; Concentric cylinders viscometry
Measurement label: viscosity (mPa·s)

>  <Structure>
CC[P+](CC)(CC)CCOC.O=S(=O)([N-]S(=O)(=O)C(F)(F)F)C(F)(F)F

>  <U>
mPa·s

>  <Observed result>
8.692

$$$$
>  <Structure>
CCCCC[P+](CC)(CC)CC.O=S(=O)([N-]S(=O)(=O)C(F)(F)F)C(F)(F)F

>  <U>
mPa·s

>  <Observed result>
11.58

$$$$
>  <Structure>
CCCC[N+]1(C)CCCCC1.O=S(=O)([N-]S(=O)(=O)C(F)(F)F)C(F)(F)F

>  <U>
mPa·s

>  <Observed result>
18.36

$$$$
>  <Structure>
CCCC[N+]1(C)CCCC1.O=S(=O)([N-]S(=O)(=O)C(F)(F)F)C(F)(F)F

>  <U>
mPa·s

>  <Observed result>
12.31

$$$$

----------
Reported electrical conductivity by item:
- Details: 298.15 K; 100 kPa; Liquid; Alternating current cell with electrodes

>  <Structure>
CC[P+](CC)(CC)CCOC.O=S(=O)([N-]S(=O)(=O)C(F)(F)F)C(F)(F)F

>  <electrical conductivity / S/m>
0.384

$$$$
>  <Structure>
CCCC[N+]1(C)CCCCC1.O=S(=O)([N-]S(=O)(=O)C(F)(F)F)C(F)(F)F

>  <electrical conductivity / S/m>
0.139

$$$$
>  <Structure>
CCCC[N+]1(C)CCCC1.O=S(=O)([N-]S(=O)(=O)C(F)(F)F)C(F)(F)F

>  <electrical conductivity / S/m>
0.393

$$$$
>  <Structure>
CCCCC[P+](CC)(CC)CC.O=S(=O)([N-]S(=O)(=O)C(F)(F)F)C(F)(F)F

>  <electrical conductivity / S/m>
0.21

$$$$

----------
# viscosity per record follows
- Details: 373.15 K; 100 kPa; Liquid; Concentric cylinders viscometry
Measurement label: viscosity (mPa·s)

>  <Structure>
CCCC[N+]1(C)CCCCC1.O=S(=O)([N-]S(=O)(=O)C(F)(F)F)C(F)(F)F

>  <Observed result>
11.62

$$$$
>  <Structure>
CC[P+](CC)(CC)CCOC.O=S(=O)([N-]S(=O)(=O)C(F)(F)F)C(F)(F)F

>  <Observed result>
5.99

$$$$
>  <Structure>
CCCCC[P+](CC)(CC)CC.O=S(=O)([N-]S(=O)(=O)C(F)(F)F)C(F)(F)F

>  <Observed result>
7.531

$$$$
>  <Structure>
CCCC[N+]1(C)CCCC1.O=S(=O)([N-]S(=O)(=O)C(F)(F)F)C(F)(F)F

>  <Observed result>
8.272

$$$$

----------
- Details: 355.15 K; 100 kPa; Liquid; Vibrating tube method
± gives the expanded uncertainty stated by the source.
Measurement label: mass density

>  <Structure>
CCCCC[P+](CC)(CC)CC.O=S(=O)([N-]S(=O)(=O)C(F)(F)F)C(F)(F)F

>  <Measurement label>
mass density

>  <Observed result>
1256 ± 1 kg/m3

$$$$
>  <Structure>
CCCC[N+]1(C)CCCCC1.O=S(=O)([N-]S(=O)(=O)C(F)(F)F)C(F)(F)F

>  <Measurement label>
mass density

>  <Observed result>
1333 ± 1 kg/m3

$$$$
>  <Structure>
CCCC[N+]1(C)CCCC1.O=S(=O)([N-]S(=O)(=O)C(F)(F)F)C(F)(F)F

>  <Measurement label>
mass density

>  <Observed result>
1345 ± 1 kg/m3

$$$$
>  <Structure>
CC[P+](CC)(CC)CCOC.O=S(=O)([N-]S(=O)(=O)C(F)(F)F)C(F)(F)F

>  <Measurement label>
mass density

>  <Observed result>
1327 ± 1 kg/m3

$$$$

----------
- Details: 348.15 K; 100 kPa; Liquid; Alternating current cell with electrodes

>  <Structure>
CCCC[N+]1(C)CCCC1.O=S(=O)([N-]S(=O)(=O)C(F)(F)F)C(F)(F)F

>  <U>
S/m

>  <electrical conductivity>
1.64

$$$$
>  <Structure>
CCCCC[P+](CC)(CC)CC.O=S(=O)([N-]S(=O)(=O)C(F)(F)F)C(F)(F)F

>  <U>
S/m

>  <electrical conductivity>
0.917

$$$$
>  <Structure>
CC[P+](CC)(CC)CCOC.O=S(=O)([N-]S(=O)(=O)C(F)(F)F)C(F)(F)F

>  <U>
S/m

>  <electrical conductivity>
1.45

$$$$
>  <Structure>
CCCC[N+]1(C)CCCCC1.O=S(=O)([N-]S(=O)(=O)C(F)(F)F)C(F)(F)F

>  <U>
S/m

>  <electrical conductivity>
0.876

$$$$

----------
- Details: 361.15 K; 100 kPa; Liquid; Concentric cylinders viscometry
viscosity: recorded values

>  <Structure>
CCCC[N+]1(C)CCCC1.O=S(=O)([N-]S(=O)(=O)C(F)(F)F)C(F)(F)F

>  <viscosity [mPa·s]>
10.78

$$$$
>  <Structure>
CCCCC[P+](CC)(CC)CC.O=S(=O)([N-]S(=O)(=O)C(F)(F)F)C(F)(F)F

>  <viscosity [mPa·s]>
10.02

$$$$
>  <Structure>
CC[P+](CC)(CC)CCOC.O=S(=O)([N-]S(=O)(=O)C(F)(F)F)C(F)(F)F

>  <viscosity [mPa·s]>
7.672

$$$$
>  <Structure>
CCCC[N+]1(C)CCCCC1.O=S(=O)([N-]S(=O)(=O)C(F)(F)F)C(F)(F)F

>  <viscosity [mPa·s]>
15.62

$$$$
